Please respond with reported activity coefficient for every item in the list.
experiment: activity coefficient (dimensionless); of the first substance listed, at infinite dilution; xn = mol fraction of the nth substance listed; conditions: 368.15 K; 101.33 kPa; Liquid; Chromatography; x1 = 0
The answer should be a number; do not append a unit.

Consider the compound shown here: CC(C)OC(C)C [diisopropyl ether] + CCCCCCCCCCCC[N+](C)(C)CCOc1ccccc1.N#C[N-]C#N What is its recorded activity coefficient?
4.36

Also check CCO [ethanol] + CCCCCCCCCCCC[N+](C)(C)CCOc1ccccc1.O=S(=O)([N-]S(=O)(=O)C(F)(F)F)C(F)(F)F
1.06

Also check CCCC(C)=O [pentan-2-one] + CCCCCCCCCCCC[N+](C)(C)CCOc1ccccc1.O=S(=O)([N-]S(=O)(=O)C(F)(F)F)C(F)(F)F
0.503

Also check CCCC(=O)OC [methyl butanoate] + CCCCCCCCCCCC[N+](C)(C)CCOc1ccccc1.O=S(=O)([N-]S(=O)(=O)C(F)(F)F)C(F)(F)F
0.741

Also check C1CCCCCC1 [cycloheptane] + CCCCCCCCCCCC[N+](C)(C)CCOc1ccccc1.N#C[N-]C#N
3.37

Also check c1ccccc1 [benzene] + CCCCCCCCCCCC[N+](C)(C)CCOc1ccccc1.O=S(=O)([N-]S(=O)(=O)C(F)(F)F)C(F)(F)F
0.716

Also check Cc1ccccc1 [toluene] + CCCCCCCCCCCC[N+](C)(C)CCOc1ccccc1.N#C[N-]C#N
1.24

Also check C1=CCCCC1 [cyclohexene] + CCCCCCCCCCCC[N+](C)(C)CCOc1ccccc1.N#C[N-]C#N
2.29

Also check CCCCCCCCC [nonane] + CCCCCCCCCCCC[N+](C)(C)CCOc1ccccc1.N#C[N-]C#N
8.21

Also check CCCO [propan-1-ol] + CCCCCCCCCCCC[N+](C)(C)CCOc1ccccc1.O=S(=O)([N-]S(=O)(=O)C(F)(F)F)C(F)(F)F
1.11

Also check CCCCO [butan-1-ol] + CCCCCCCCCCCC[N+](C)(C)CCOc1ccccc1.N#C[N-]C#N
0.504

Also check CCO [ethanol] + CCCCCCCCCCCC[N+](C)(C)CCOc1ccccc1.N#C[N-]C#N
0.446

Also check CCC(=O)OC [methyl propanoate] + CCCCCCCCCCCC[N+](C)(C)CCOc1ccccc1.O=S(=O)([N-]S(=O)(=O)C(F)(F)F)C(F)(F)F
0.669

Also check CCCCO [butan-1-ol] + CCCCCCCCCCCC[N+](C)(C)CCOc1ccccc1.O=S(=O)([N-]S(=O)(=O)C(F)(F)F)C(F)(F)F
1.15

Also check COC(C)(C)C [2-methoxy-2-methylpropane] + CCCCCCCCCCCC[N+](C)(C)CCOc1ccccc1.O=S(=O)([N-]S(=O)(=O)C(F)(F)F)C(F)(F)F
1.33

Also check CCOCC [diethyl ether] + CCCCCCCCCCCC[N+](C)(C)CCOc1ccccc1.N#C[N-]C#N
2.39

Also check CC(C)CC(C)(C)C [2,2,4-trimethylpentane] + CCCCCCCCCCCC[N+](C)(C)CCOc1ccccc1.N#C[N-]C#N
7.39

Also check C#CCCC [1-pentyne] + CCCCCCCCCCCC[N+](C)(C)CCOc1ccccc1.N#C[N-]C#N
1.73

Also check C=CCCCC [hex-1-ene] + CCCCCCCCCCCC[N+](C)(C)CCOc1ccccc1.O=S(=O)([N-]S(=O)(=O)C(F)(F)F)C(F)(F)F
2.41

Also check CCOC(C)(C)C [2-ethoxy-2-methylpropane] + CCCCCCCCCCCC[N+](C)(C)CCOc1ccccc1.O=S(=O)([N-]S(=O)(=O)C(F)(F)F)C(F)(F)F
2.16

Also check CC(C)O [propan-2-ol] + CCCCCCCCCCCC[N+](C)(C)CCOc1ccccc1.O=S(=O)([N-]S(=O)(=O)C(F)(F)F)C(F)(F)F
1.08

Also check C=CCCCCCCCC [1-decene] + CCCCCCCCCCCC[N+](C)(C)CCOc1ccccc1.O=S(=O)([N-]S(=O)(=O)C(F)(F)F)C(F)(F)F
4.63

Also check CC(C)O [propan-2-ol] + CCCCCCCCCCCC[N+](C)(C)CCOc1ccccc1.N#C[N-]C#N
0.528

Also check C1COCCO1 [1,4-dioxane] + CCCCCCCCCCCC[N+](C)(C)CCOc1ccccc1.N#C[N-]C#N
0.871

Also check CCCCCCCC [octane] + CCCCCCCCCCCC[N+](C)(C)CCOc1ccccc1.O=S(=O)([N-]S(=O)(=O)C(F)(F)F)C(F)(F)F
4.5

Also check CCOCC [diethyl ether] + CCCCCCCCCCCC[N+](C)(C)CCOc1ccccc1.O=S(=O)([N-]S(=O)(=O)C(F)(F)F)C(F)(F)F
1.36

Also check COC(C)=O [methyl ethanoate] + CCCCCCCCCCCC[N+](C)(C)CCOc1ccccc1.N#C[N-]C#N
1.14

Also check c1ccccc1 [benzene] + CCCCCCCCCCCC[N+](C)(C)CCOc1ccccc1.N#C[N-]C#N
0.972

* * *

test: activity coefficient (dimensionless); of the first substance listed, at infinite dilution; xn = mol fraction of the nth substance listed; conditions: 328.15 K; 101.33 kPa; Liquid; Chromatography; x1 = 0
Quick rule: activity coefficient of at least 2 means true (1), below that means false (0).

hey, is activity coefficient for this one >= 2? CCO [ethanol] + CCCCCCCCCCCC[N+](C)(C)CCOc1ccccc1.N#C[N-]C#N
false (0)

Also check CC(C)c1ccccc1 [isopropylbenzene] + CCCCCCCCCCCC[N+](C)(C)CCOc1ccccc1.O=S(=O)([N-]S(=O)(=O)C(F)(F)F)C(F)(F)F
false (0)

Also check CCCOCCC [dipropyl ether] + CCCCCCCCCCCC[N+](C)(C)CCOc1ccccc1.O=S(=O)([N-]S(=O)(=O)C(F)(F)F)C(F)(F)F
false (0)

Also check C=C(C)c1ccccc1 [(1-methylethenyl)benzene] + CCCCCCCCCCCC[N+](C)(C)CCOc1ccccc1.O=S(=O)([N-]S(=O)(=O)C(F)(F)F)C(F)(F)F
false (0)

Also check CC#N [acetonitrile] + CCCCCCCCCCCC[N+](C)(C)CCOc1ccccc1.O=S(=O)([N-]S(=O)(=O)C(F)(F)F)C(F)(F)F
false (0)

Also check CC1CCCCC1 [methylcyclohexane] + CCCCCCCCCCCC[N+](C)(C)CCOc1ccccc1.O=S(=O)([N-]S(=O)(=O)C(F)(F)F)C(F)(F)F
true (1)

Also check C1CCCCCCC1 [cyclooctane] + CCCCCCCCCCCC[N+](C)(C)CCOc1ccccc1.N#C[N-]C#N
true (1)

Also check COC(C)(C)C [2-methoxy-2-methylpropane] + CCCCCCCCCCCC[N+](C)(C)CCOc1ccccc1.O=S(=O)([N-]S(=O)(=O)C(F)(F)F)C(F)(F)F
false (0)

Also check CCCCO [butan-1-ol] + CCCCCCCCCCCC[N+](C)(C)CCOc1ccccc1.O=S(=O)([N-]S(=O)(=O)C(F)(F)F)C(F)(F)F
false (0)

Also check CCc1ccccc1 [ethylbenzene] + CCCCCCCCCCCC[N+](C)(C)CCOc1ccccc1.N#C[N-]C#N
false (0)

Also check CCCCCCC [heptane] + CCCCCCCCCCCC[N+](C)(C)CCOc1ccccc1.N#C[N-]C#N
true (1)

Also check CCC(C)(C)OC [2-methoxy-2-methylbutane] + CCCCCCCCCCCC[N+](C)(C)CCOc1ccccc1.N#C[N-]C#N
true (1)

Also check CC(C)O [propan-2-ol] + CCCCCCCCCCCC[N+](C)(C)CCOc1ccccc1.N#C[N-]C#N
false (0)

Also check CCC(C)O (stereo not drawn) [butan-2-ol] + CCCCCCCCCCCC[N+](C)(C)CCOc1ccccc1.O=S(=O)([N-]S(=O)(=O)C(F)(F)F)C(F)(F)F
false (0)

Also check CCCc1ccccc1 [propylbenzene] + CCCCCCCCCCCC[N+](C)(C)CCOc1ccccc1.O=S(=O)([N-]S(=O)(=O)C(F)(F)F)C(F)(F)F
false (0)

Also check C1COCCO1 [1,4-dioxane] + CCCCCCCCCCCC[N+](C)(C)CCOc1ccccc1.N#C[N-]C#N
false (0)

Also check c1ccccc1 [benzene] + CCCCCCCCCCCC[N+](C)(C)CCOc1ccccc1.N#C[N-]C#N
false (0)

Also check C=CCCCCCCCC [1-decene] + CCCCCCCCCCCC[N+](C)(C)CCOc1ccccc1.N#C[N-]C#N
true (1)

Also check CCC(=O)OC [methyl propanoate] + CCCCCCCCCCCC[N+](C)(C)CCOc1ccccc1.N#C[N-]C#N
false (0)

Also check C=C(C)c1ccccc1 [(1-methylethenyl)benzene] + CCCCCCCCCCCC[N+](C)(C)CCOc1ccccc1.N#C[N-]C#N
false (0)

Also check C1=CCCCC1 [cyclohexene] + CCCCCCCCCCCC[N+](C)(C)CCOc1ccccc1.N#C[N-]C#N
true (1)

Also check CCCCCCCCC [nonane] + CCCCCCCCCCCC[N+](C)(C)CCOc1ccccc1.O=S(=O)([N-]S(=O)(=O)C(F)(F)F)C(F)(F)F
true (1)

Also check Cc1ccccc1 [toluene] + CCCCCCCCCCCC[N+](C)(C)CCOc1ccccc1.N#C[N-]C#N
false (0)

Also check c1ccccc1 [benzene] + CCCCCCCCCCCC[N+](C)(C)CCOc1ccccc1.O=S(=O)([N-]S(=O)(=O)C(F)(F)F)C(F)(F)F
false (0)

Also check c1ccsc1 [thiophene] + CCCCCCCCCCCC[N+](C)(C)CCOc1ccccc1.O=S(=O)([N-]S(=O)(=O)C(F)(F)F)C(F)(F)F
false (0)

Also check C=CCCCCCC [oct-1-ene] + CCCCCCCCCCCC[N+](C)(C)CCOc1ccccc1.O=S(=O)([N-]S(=O)(=O)C(F)(F)F)C(F)(F)F
true (1)

Also check C#CCCC [1-pentyne] + CCCCCCCCCCCC[N+](C)(C)CCOc1ccccc1.N#C[N-]C#N
false (0)

Also check CC(C)CC(C)(C)C [2,2,4-trimethylpentane] + CCCCCCCCCCCC[N+](C)(C)CCOc1ccccc1.N#C[N-]C#N
true (1)
